Listed next: entries and their corresponding Cmax.
Assay: Cmax in cynomolgus monkey at 1 mg/kg, po
Type: ADME, organism-based, Macaca fascicularis
Design: dose 1 mg/kg, route po
Conditions: in vivo
Field: numeric (ng/mL). Do not append units.

# count of solved cases: 3
{"columns": ["item-smiles", "value"],
 "data": [
  ["Cc1sc(N(CC2CC2)[C@H](C)c2ccc(-c3cc(Cl)ccc3-c3nc(=O)o[nH]3)cc2)nc1C(=O)NS(=O)(=O)C1CC1", 1210],
  ["Cc1sc(N(CC2CC2)[C@H](C)c2ccc(-c3cc(Cl)ccc3-c3nc(=O)o[nH]3)cc2)nc1C(=O)NS(=O)(=O)C1CCCC1", 722],
  ["CONC(=O)c1ccc(C)cc1-c1ccc([C@@H](C)N(CC2CC2)c2nc(C(=O)NS(=O)(=O)C3CC3)c(C3CC3)s2)cc1", 3480]
]}

# evaluate next
Please fill in: Cmax reported for "Cc1sc(N(CC2CC2)[C@H](C)c2ccc(-c3cc(Cl)ccc3-c3nc(=O)o[nH]3)cc2)nc1C(=O)NS(C)(=O)=O" = 216

Every entry's value here was drawn from ChEMBL document CHEMBL5154705.
